Values from PubChem BioAssay (NCI)

Tested on: T-47D breast
experimental-protocol: NCI-60 one-dose screen, 48 h (100 = growth as untreated, 0 = no growth, -100 = all killed)
condition: 10 µM unless noted
This is part of a sample that, as a whole, favours compounds with a hit. Of some 83,000 tested, about 20% had one in any assay.
readout: growth (%)
Answers are plain numbers, in %.

Recorded growth, per entry:
{"columns": ["compound", "growth [%]"],
 "data": [
  ["C=C(C)[C@@H]1CC[C@]2(C(=O)NNC(=O)c3cccnc3)CC[C@]3(C)[C@H](CC[C@@H]4[C@@]5(C)CCCNC(C)(C)[C@@H]5CC[C@]43C)[C@@H]12", 57.6],
  ["Cn1cc(-c2csc(-c3cn(CCNC(=O)OC(C)(C)C)c4ccc(F)cc34)n2)c2cccnc21", 1.12],
  ["O=c1c(CNc2ccc(S(=O)(=O)Nc3ncccn3)cc2)coc2ccccc12", 81.1],
  ["O=S(=O)(NCCNc1cc(-c2cn(-c3ccccc3)nc2-c2cccc(O)c2)ccn1)c1ccc(F)cc1", 7.88],
  ["c1ccc(CN2C(c3ccccc3)=Nc3ccccc3C2c2c[nH]c3ccccc23)cc1 (stereo not drawn)", 27.8]
]}

Provide reported growth for each item, in the same order as listed.
1. COc1ccc(NC(=O)c2ccc3c(c2)nc(-c2cc4ccccc4[nH]c2=O)n3-c2cc(C(C)(C)C)[nH]n2)cc1
2. CN1CCN(c2ccc3nc(-c4[nH]ncc4Nc4ncnc5[nH]ccc45)[nH]c3c2)CC1
3. CCCCCCCC(=O)SCC/C=C/[C@@H]1CC(=O)NCc2cccc(n2)CN(Cc2ccc(Cl)cc2)CC(=O)N[C@@H](C(C)C)C(=O)O1

## Output
[78.9, -3.09, 30.9]

---

Tested on: K-562 leukemia
experimental-protocol: NCI-60 one-dose screen, 48 h
condition: 10 µM unless noted
Compounds without any hit were thinned out: in the full panel of roughly 83,000, 20% have a hit. Calls of active or inactive are those of the source. The calls were made as follows: active = growth percent below 10; inactive = the rest.
Lab note: assign the record to one of active, inactive

{"columns": ["compound", "assigned-label"],
 "data": [
  ["Oc1ccc(CCC2CCCC(CCc3ccc(OCCF)cc3)N2)cc1 (stereo not given)", "inactive"],
  ["CN(C)c1ccc(-c2ccc(-c3ccc(C(=N)N)c(F)c3)s2)cc1", "active"],
  ["Cc1nn(-c2ccc(Br)cc2)c2nc3[nH]c(=O)[nH]c(=O)c3nc12", "inactive"],
  ["CCCC(=O)N1CCCCC1CC (stereo not given)", "inactive"],
  ["COC(=O)[C@]12CC[C@@H](C)[C@H](C)[C@@H]1C1=CC[C@@H]3[C@@]4(C)C[C@@H](OC(C)=O)[C@H](O)[C@@](C)(COC(C)=O)[C@@H]4[C@H](O)C[C@@]3(C)[C@]1(C)CC2", "active"],
  ["O=C1c2cc3c(cc2-c2c1c1ccc(F)cc1c(=O)n2CCCN1CCOCC1)OCO3", "inactive"],
  ["C=C1C(=O)O[C@H]2[C@H]1CC/C(COC(=O)NCCc1c[nH]c3ccccc13)=C\\CC[C@@]1(C)O[C@@H]21", "active"],
  ["O=C1/C(=C\\C(Cl)=C/c2ccc([N+](=O)[O-])cc2)SC(=S)N1CCc1ccc(O)cc1", "active"],
  ["O=[N+]([O-])c1ccc(/C=N\\Nc2ccccc2)cc1", "inactive"]
]}

Consider the additional compound presented here.
## Input Check the results log: what was the call for COc1ccc(-c2cc(/C=C/C(=O)c3ccc(N)cc3)[nH]n2)cc1 ?
## Output active

---

Would you kindly list growth for each of these compounds?
Test system: 786-0 renal
experimental-protocol: NCI-60 one-dose screen, 48 h (100 = growth as untreated, 0 = no growth, -100 = all killed)
condition: 10 µM unless noted
Method: Cells are grown in 96 well plates and exposed to the test compound for 48 hours. Compounds are tested at a single concentration, which is 10^-5 M for most compounds. The reported endpoint is percent growth (GI% or GIPRCNT), where numbers from 0 - 100% represent growth inhibition, and numbers from -100% - 0 represent cell death. For example, a value of 40 represents 60% growth inhibition. A value of 0 means no net growth occurred over the course of the experiment. […]
The panel holds about 83,000 compounds, 20% with a hit somewhere; the sample as a whole holds those more often.
Numbers only, in %.

{"columns": ["smi", "readout-units", "growth"],
 "data": [
  ["COc1cc(-c2c(C#N)c(-c3cccs3)nc3c2c(-c2ccccc2)nn3-c2ccccc2)ccc1O", "%", 85.4],
  ["COc1ccc(NC(=O)c2ccc3c(c2)nc(-c2cc4ccccc4[nH]c2=O)n3-c2cc(C(C)(C)C)[nH]n2)cc1", "%", 92.4],
  ["C=C(C)[C@@H]1CC[C@]2(C(=O)O)CC[C@]3(C)[C@H](CC[C@@H]4[C@@]5(C)C/C(=C/c6ccc(OC)cc6)C(=O)C(C)(C)[C@@H]5CC[C@]43C)[C@@H]12", "%", 25.1]
]}

Now for the compound whose growth we want.
## Input Look up growth with 786-0 renal for this compound: C/C(=N\Nc1cc(C)c2ccccc2n1)c1ccccn1
## Output -63.9

---

Test system: MOLT-4 leukemia
experimental-protocol: NCI-60 one-dose screen, 48 h (100 = growth as untreated, 0 = no growth, -100 = all killed)
condition: 10 µM unless noted
Compounds without any hit were thinned out: in the full panel of roughly 83,000, 20% have a hit. Active and inactive are the calls of the source. How the source made its calls: active means growth percent below 10; inactive means the rest.
Hi there, I'd appreciate the recorded growth for every entry that follows.

Known growth results, listed for orientation:
{"columns": ["molecule", "target-of-assay", "growth"],
 "data": [
  ["CCSc1sc(-c2ccc(C)cc2)nc1[P+](c1ccccc1)(c1ccccc1)c1ccccc1", "MOLT-4 leukemia", "-48.8% (active)"],
  ["CC/C=C\\C[C@H]1CC=C2C(=O)C=C[C@@H]2CC=CCCCC(=O)O[C@@H](CCCCC)CC=C2C(=O)C=C[C@@H]2CC=CCCCC(=O)O[C@@H](CCCCC)CC=C2C(=O)C=C[C@@H]2CC=CCCCC(=O)O[C@@H](CCCCC)CC=C2C(=O)C=C[C@@H]2CC=CCCCC(=O)O1", "MOLT-4 leukemia", "4.01% [7.9 µM] (active)"],
  ["COc1ccc(C2=NN(c3nc(-c4ccc(OC)cc4)c(C#N)c(=O)n3C)C(=O)CC2)cc1", "MOLT-4 leukemia", "96.6% (inactive)"],
  ["COc1ccc2c(c1)c1nc3cc(C)c(C)cc3nc1n2CCN(C)C", "MOLT-4 leukemia", "0.921% (active)"]
]}

State recorded growth for all listed molecules.
1. Nc1nc2c(c(=O)[nH]1)C(c1ccc3c(c1)OCO3)C=C(C(=O)O)N2 (stereo not drawn)
2. Cc1ccc(Sc2sc(-c3ccccc3)nc2[P+](c2ccccc2)(c2ccccc2)c2ccccc2)cc1
3. N=c1c(S(=O)(=O)c2ccccc2)cc2c(=O)n3ccccc3nc2n1C1CCCC1
4. C=C(C)[C@@H]1CC[C@]2(c3nnc(-c4ccncc4)o3)CC[C@]3(C)[C@H](CC[C@@H]4[C@@]5(C)CCC(=O)NC(C)(C)[C@@H]5CC[C@]43C)[C@@H]12
5. N=C(N)c1ccc(-c2ccc(-c3cc(F)cc(F)c3)o2)nc1

## Output
["106% (inactive)", "-48.2% (active)", "82% (inactive)", "85.6% (inactive)", "73.8% (inactive)"]

Please state growth for every molecule in the list that follows.
1. C=C1C(=O)O[C@H]2[C@H]1CC/C(Cn1cc(-c3ccc(F)cc3)nn1)=C\CC[C@@]1(C)O[C@@H]21
2. O=C(/C=C/c1cccc2ccccc12)Nc1ncc(Cc2ccccc2)s1
3. N#CC1=C(N)Oc2c(sc3c(F)cccc23)C1c1ccc(Cl)cc1 (stereo not drawn)
4. Cc1cc(N2CCCCC2)nc(N(CCNc2ccnc3cc(Cl)ccc23)Cc2ccco2)n1
5. Cc1csc(Nc2nc(-c3ccc(Cl)cc3)nc(C(Cl)(Cl)Cl)n2)n1
6. COc1cccc(-c2nn(-c3ccccc3)cc2-c2ccnc(NCCNS(=O)(=O)c3ccc(Cl)cc3)c2)c1
7. Cn1cc(-c2csc(-c3cn(CCCN4CCCCC4)c4ccc(Br)cc34)n2)c2cccnc21

## Output
1: -25.4% (active); 2: 18% (inactive); 3: 8.38% (active); 4: 0.376% (active); 5: 84.4% (inactive); 6: 1.18% (active); 7: -46.3% (active)

Below are 2 molecules. Give each one its growth.
1. CC(=O)NC1=C(C#N)C(c2ccccc2Cl)c2c(ccc3ccccc23)O1 (stereo not drawn)
2. CC/C(=N/NC(N)=O)c1ccccc1

## Output
50.2% (inactive)
98% (inactive)

---

Tested on: CCRF-CEM leukemia
experimental-protocol: NCI-60 one-dose screen, 48 h (100 = growth as untreated, 0 = no growth, -100 = all killed)
condition: 10 µM unless noted
Compounds without any hit were thinned out: in the full panel of roughly 83,000, 20% have a hit. Calls of active or inactive are those of the source. How the source made its calls: active means growth percent below 10; inactive means the rest.
I'd be grateful if you could share measured growth for these entries.

Sample answers from the record:
{"columns": ["molecule", "target-of-assay", "growth"],
 "data": [
  ["C[C@H]1OC(=O)/C=C/[C@@H](O)[C@@H](O)CCCCCCCC[C@@H]1O", "CCRF-CEM leukemia", "62.4% (inactive)"],
  ["CC(=O)O[C@H]1CC[C@@]2(C)[C@@H](CC[C@@H]3[C@@H]2CC(=O)[C@@]2(C)[C@H]3C[C@@H](C3CCCC3=O)[C@@H]2C(C)=O)C1 (some centres not stated)", "CCRF-CEM leukemia", "92.9% (inactive)"],
  ["CCc1cccc(CC)c1NC(=O)c1sc2nc3c(cc2c1N)CCCC3", "CCRF-CEM leukemia", "60.7% (inactive)"]
]}

Dear colleague, could you please provide growth for the molecules listed below?
1. CN1CCN(CC#CCn2c3c(c4ccccc42)C[C@]2(C)[C@H]4CC[C@@H]5[C@H]6[C@H]7OC(=O)[C@@]6(CCC7(C)C)CC[C@@]5(C)[C@]4(C)CC[C@H]2C3(C)C)CC1
2. C=C(C)[C@@H]1CC[C@]2(C(=O)O)CC[C@]3(C)[C@H](CC[C@@H]4[C@@]5(C)C/C(=C/c6ccc(OC)cc6)C(=O)C(C)(C)[C@@H]5CC[C@]43C)[C@@H]12
3. Clc1cc(Cl)cc(Nc2ccc3c(OCCCN4CCOCC4)cccc3n2)c1
4. CCCCC[C@H]1CC=C2C(=O)C=C[C@@H]2CC=CCCCC(=O)O[C@@H](CCCCC)CC=C2C(=O)C=C[C@@H]2CC=CCCCC(=O)O[C@@H](CCCCC)CC=C2C(=O)C=C[C@@H]2CC=CCCCC(=O)O1
5. CC(=O)c1c(C)[nH]c(-c2nc3ccc(N4CCN(C)CC4)cc3[nH]2)c1-c1ccc2c(c1)OCCO2
6. CC(=O)Cc1nsc(NC(=O)c2ccoc2COc2ccccc2)n1

## Output
-0.753% (active)
24% (inactive)
29.5% (inactive)
7.92% [8.75 µM] (active)
50.3% (inactive)
93.2% (inactive)
